experiment: self-splicing fitness, log relative to wild type (ln ratio); higher = more splicing; Tetrahymena group I intron in knt gene, E. coli kanamycin selection, DiMSum; sequences stand for … in CUCUCU…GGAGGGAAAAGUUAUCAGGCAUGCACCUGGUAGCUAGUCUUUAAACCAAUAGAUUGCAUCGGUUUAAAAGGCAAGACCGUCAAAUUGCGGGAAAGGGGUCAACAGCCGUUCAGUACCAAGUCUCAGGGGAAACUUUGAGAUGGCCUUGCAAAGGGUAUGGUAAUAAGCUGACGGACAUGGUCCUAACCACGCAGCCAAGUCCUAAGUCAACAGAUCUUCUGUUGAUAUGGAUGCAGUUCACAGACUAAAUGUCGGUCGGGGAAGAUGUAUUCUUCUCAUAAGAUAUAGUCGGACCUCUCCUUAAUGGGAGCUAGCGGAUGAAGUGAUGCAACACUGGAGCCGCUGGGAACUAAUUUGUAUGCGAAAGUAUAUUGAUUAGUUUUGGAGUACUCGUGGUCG; conditions: 30 °C;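 further: selection with 25 µg/mL kanamycin versus none on LB agar overnight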
Classes are defined on self-splicing fitness (ln) with ranges bin A = under -3, bin B = from -3 up to -1, bin C = -1 and over

# residue_string, group
records = [
    ("CUGAAGCAAUAUUACGCCUA", "bin A"),
    ("GCGGAGCAAUAUUACGAACC", "bin B"),
    ("UGUAAGCAAUAUUACGUAAC", "bin B"),
    ("AUUCAGCAAUAUUACGACAC", "bin B"),
    ("AUUUAGCAAUAUUACGACAC", "bin C"),
    ("UACGAGCAAUAUUACGUGUG", "bin B"),
    ("CUCUAGCAAUAUUACGGCUG", "bin B"),
    ("GGCAAGCAAUAUUACGUCCA", "bin B"),
    ("AAAUAGCAAUAUUACGCACU", "bin C"),
    ("AAAGAGCAAUAUUACGCCAA", "bin B"),
    ("AUUUAGCAAUAUUACGUAGA", "bin B"),
    ("CACGAGCAAUAUUACGGCAU", "bin A"),
    ("CGUUAGCAAUAUUACGGCUG", "bin C"),
    ("UUAGAGCAAUAUUACGGGAC", "bin A"),
    ("GCUAAGCAAUAUUACGGGAC", "bin B"),
    ("UGGUAGCAAUAUUACGACCC", "bin C"),
    ("AGAUAGCAAUAUUACGUCGU", "bin B"),
    ("AUCAAGCAAUAUUACGGGGC", "bin A"),
    ("UUAAAGCAAUAUUACGGCAC", "bin B"),
    ("UUCCAGCAAUAUUACGGGCA", "bin C"),
    ("AGUUAGCAAUAUUACGCACC", "bin B"),
    ("ACUAAGCAAUAUUACGAUCU", "bin C"),
    ("AUUUAGCAAUAUUACGGGGC", "bin A"),
    ("AGUAAGCAAUAUUACGCGAC", "bin A"),
    ("GGAAAGCAAUAUUACGACGA", "bin C"),
    ("CCAUAGCAAUAUUACGCGAU", "bin B"),
    ("UCUCAGCAAUAUUACGUGGU", "bin B"),
    ("GAGGAGCAAUAUUACGAACA", "bin B"),
    ("GGCCAGCAAUAUUACGGUAG", "bin C"),
    ("CGGCAGCAAUAUUACGAAUG", "bin C"),
]

###

# self-splicing fitness (ln) per entry
test: self-splicing fitness, log relative to wild type (ln ratio); higher = more splicing; Tetrahymena group I intron in knt gene, E. coli kanamycin selection, DiMSum; sequences stand for … in CUCUCU…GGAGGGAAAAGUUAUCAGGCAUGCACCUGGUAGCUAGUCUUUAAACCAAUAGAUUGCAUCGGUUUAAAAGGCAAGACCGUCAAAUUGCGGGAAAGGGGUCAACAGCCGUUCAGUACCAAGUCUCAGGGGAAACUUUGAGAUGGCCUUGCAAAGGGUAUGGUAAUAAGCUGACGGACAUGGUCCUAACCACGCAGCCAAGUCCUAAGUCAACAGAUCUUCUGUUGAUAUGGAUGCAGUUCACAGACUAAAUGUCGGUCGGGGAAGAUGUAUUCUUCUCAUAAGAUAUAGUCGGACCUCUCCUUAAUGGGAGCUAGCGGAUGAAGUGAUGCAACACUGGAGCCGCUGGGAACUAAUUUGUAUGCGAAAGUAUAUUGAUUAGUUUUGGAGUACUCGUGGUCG; conditions: 30 °C

# residue_string, self-splicing fitness (ln)
data = [
    ("GCCCAGCAAUAUUACGGGCC", -3.22),
    ("AUUAAGCAAUAUUACGAGGC", -3.18),
    ("GUUCAGCAAUAUUACGUCGG", -3.7),
    ("UCCUAGCAAUAUUACGUCUU", -4.03),
    ("CGGAAGCAAUAUUACGGUUC", -3.49),
    ("ACUGAGCAAUAUUACGACGG", -1.08),
    ("GGACAGCAAUAUUACGAUAG", -3.66),
    ("CCGGAGCAAUAUUACGAGGC", -1.99),
    ("UUCCAGCAAUAUUACGUUAU", -3.08),
    ("GUAUAGCAAUAUUACGUCGA", -2.2),
    ("CAUAAGCAAUAUUACGGUGG", -1.24),
    ("CUAAAGCAAUAUUACGCCAU", -3.34),
    ("GGCGAGCAAUAUUACGUCAA", -3.73),
    ("GAAGAGCAAUAUUACGACAC", -1.1),
    ("AGUAAGCAAUAUUACGCGUA", -1.73),
    ("CUUCAGCAAUAUUACGGGAA", -1.22),
]

###

assay: self-splicing fitness, log relative to wild type (ln ratio); higher = more splicing; Tetrahymena group I intron in knt gene, E. coli kanamycin selection, DiMSum; sequences stand for … in CUCUCU…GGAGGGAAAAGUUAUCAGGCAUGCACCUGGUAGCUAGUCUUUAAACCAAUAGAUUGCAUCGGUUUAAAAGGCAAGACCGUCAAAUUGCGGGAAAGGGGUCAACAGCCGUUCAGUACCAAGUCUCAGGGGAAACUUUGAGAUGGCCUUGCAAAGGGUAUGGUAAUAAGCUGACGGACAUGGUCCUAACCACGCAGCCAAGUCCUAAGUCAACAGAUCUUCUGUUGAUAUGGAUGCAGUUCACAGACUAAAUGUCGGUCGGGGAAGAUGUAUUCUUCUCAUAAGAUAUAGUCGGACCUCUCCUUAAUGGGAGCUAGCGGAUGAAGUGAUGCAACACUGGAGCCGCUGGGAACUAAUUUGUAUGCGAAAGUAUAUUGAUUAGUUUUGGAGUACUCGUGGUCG; details: 30 °C
# self-splicing fitness (ln) per entry

# residue_string, self-splicing fitness (ln)
records = [
    ("ACUCAGCAAUAUUACGUAAA", -1.36),
    ("AGAAAGCAAUAUUACGCCAG", -2.29),
    ("CCACAGCAAUAUUACGUAAG", -0.731),
    ("UAGAAGCAAUAUUACGAGUA", -1.31),
    ("UACGAGCAAUAUUACGUCAC", -2.59),
    ("UUAUAGCAAUAUUACGCUUA", -1.92),
    ("AGUCAGCAAUAUUACGUUAG", -3.63),
    ("CUAGAGCAAUAUUACGUAAA", -3.81),
]

###

# self-splicing fitness (ln) per entry
assay: self-splicing fitness, log relative to wild type (ln ratio); higher = more splicing; Tetrahymena group I intron in knt gene, E. coli kanamycin selection, DiMSum; sequences stand for … in CUCUCU…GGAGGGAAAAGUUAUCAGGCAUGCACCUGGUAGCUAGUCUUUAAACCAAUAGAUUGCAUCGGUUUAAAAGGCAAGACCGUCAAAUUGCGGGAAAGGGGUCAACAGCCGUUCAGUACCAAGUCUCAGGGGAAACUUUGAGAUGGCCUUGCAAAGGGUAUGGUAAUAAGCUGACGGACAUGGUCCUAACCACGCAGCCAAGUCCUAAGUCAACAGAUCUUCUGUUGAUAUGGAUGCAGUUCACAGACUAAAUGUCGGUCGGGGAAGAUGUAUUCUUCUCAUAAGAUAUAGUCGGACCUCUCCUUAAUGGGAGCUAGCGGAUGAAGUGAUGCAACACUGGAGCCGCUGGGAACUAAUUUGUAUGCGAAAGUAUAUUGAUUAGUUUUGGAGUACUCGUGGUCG; conditions: 37 °C

# residue_string, self-splicing fitness (ln)
rows = [
    ("CAACAGCAAUAUUACGAAUC", -2.41),
    ("GUACAGCAAUAUUACGGCAC", 0.0875),
    ("AGAGAGCAAUAUUACGCACU", -2.41),
    ("CCAGAGCAAUAUUACGACGC", -2.11),
    ("GUGGAGCAAUAUUACGUAUG", -2.3),
    ("GGGGAGCAAUAUUACGCCAU", -1.58),
    ("AUUGAGCAAUAUUACGAUCA", -2.07),
    ("CAGUAGCAAUAUUACGGUUG", -0.838),
    ("UGCCAGCAAUAUUACGUUCC", -2.25),
    ("UUCAAGCAAUAUUACGAUGC", -1.85),
    ("UGCGAGCAAUAUUACGGUAA", -2.22),
    ("GAUGAGCAAUAUUACGGAUU", -1.68),
    ("GAUUAGCAAUAUUACGGAGU", -2.5),
    ("UGACAGCAAUAUUACGACCU", 0.0765),
    ("GCGCAGCAAUAUUACGCACU", -1.23),
    ("UGGGAGCAAUAUUACGUUCU", -2.35),
    ("AUAAAGCAAUAUUACGGGGC", -1.97),
    ("GCUGAGCAAUAUUACGCAAC", -2.11),
    ("GUCUAGCAAUAUUACGCGUC", -0.0852),
    ("ACGAAGCAAUAUUACGAUCG", 0.139),
    ("AGCAAGCAAUAUUACGAUUC", -1.04),
    ("UCGAAGCAAUAUUACGUUCC", -0.433),
    ("GCCCAGCAAUAUUACGCCCU", -0.685),
    ("UCGUAGCAAUAUUACGAGGA", -2.58),
    ("UUACAGCAAUAUUACGCACA", 0.168),
    ("GUAAAGCAAUAUUACGUAAG", -1.2),
    ("GUGGAGCAAUAUUACGACCA", -1.24),
    ("CGUUAGCAAUAUUACGGCUG", -0.439),
    ("ACUGAGCAAUAUUACGGAUU", -1.59),
    ("UCAAAGCAAUAUUACGAGUG", -0.965),
    ("UUCAAGCAAUAUUACGGACA", 0.121),
    ("GGGCAGCAAUAUUACGUGAC", -1.03),
    ("GUCAAGCAAUAUUACGUUUU", -0.976),
    ("UACCAGCAAUAUUACGGGCU", -1.96),
]

These entries and their values trace back to the supplement of paper PMC7877785.
